Data credit: ChEMBL document CHEMBL1140669

protocolSummary: […] bioavailability in ip dosed rat
Assay type: ADME, organism-based
assayConditions: in vivo, intraperitoneal
measuredMetric: bioavailability (%)
Form entry: value (%) — number only.

In: Tell me bioavailability reported for C[N+](C)(Cc1ccc(NC(=O)c2ccc(Cl)c(Cl)c2)cc1)C1CCOCC1
Out: 74
